Catalogue of half-life readings, one per entry.
Tested on: human liver microsomes, metabolic stability half-life
Assay: NCATS Human Liver Microsomal (HLM) Stability Profiling
Conditions: higher = more stable; screened at 1 µM (by protocol)
Response body: numeric value in min, unit text excluded.

INSERT INTO results (compound, reported_value) VALUES
  ('Cc1ccc(Cl)c(OCC(O)CNC(C)(C)C)c1 (stereo not given)', 1.53),
  ('CCC1CCCCN1CC(=O)N1CCCc2c1c(=O)oc1ccc(OCc3ccccc3)cc21 (stereo not given)', 0.54),
  ('O=C(NCc1ccc(OC(F)(F)F)cc1)C1c2c(F)cccc2C(=O)N1CCc1ccccn1 (stereo not given)', 6.61),
  ('Cc1ccc2nc(-c3cc(NC(=O)c4ccc5c(c4)OCCO5)ccc3Cl)oc2c1', 63.3),
  ('O=C(NOCC1CC1)c1ccc(F)c(F)c1Nc1ccc(I)cc1Cl', 11.2),
  ('COc1ccc(-n2nc(CCC(=O)N(C)O)cc2-c2ccc(Cl)cc2)cc1', 39.1),
  ('COc1ccc(C(=O)Oc2ccc(C(c3c(C)[nH][nH]c3=O)c3c(C)[nH][nH]c3=O)cc2)cc1', 1.55),
  ('COCC(=O)NCC=Cc1ccc2ncnc(Nc3ccc(Oc4ccc(C)nc4)c(C)c3)c2c1', 22.7);

input: Dear colleague, I am looking for the recorded half-life of the following compound: CCOc1ccc(S(=O)(=O)N2CCCCCC2)c2ccccc12
output: 6.52

input: Dear colleague, I am looking for the recorded half-life of the following compound: Cc1ccccc1C(C(=O)NC1CCCCC1)N(C(=O)CNc1ccc(C#N)cc1)c1cccc(F)c1 (stereo not given)
output: 2.58

* * *

Tested on: human liver microsomes, metabolic stability half-life
Assay: NCATS Human Liver Microsomal (HLM) Stability Profiling
Settings: higher = more stable; screened at 1 µM (by protocol)
MEASURED ENDPOINT: half-life (min)
Response body: numeric value in min, unit text excluded.

As a guide, the following entries are already answered.
INSERT INTO results (compound, system, reported_value) VALUES
  ('Cn1nnc2c(C(N)=O)ncn2c1=O', 'human liver microsomes, metabolic stability half-life', 21.1),
  ('COc1ccc(OCC(=O)Nc2cc(-c3nc4ccccc4s3)ccc2C)cc1', 'human liver microsomes, metabolic stability half-life', 3.38),
  ('OC1(c2ccc(Cl)cc2)c2ccccc2C2=NCCN21 (centres undefined)', 'human liver microsomes, metabolic stability half-life', 74.4),
  ('C#CCOC(C(=O)OCCN(C)C)(c1ccccc1)c1ccccc1', 'human liver microsomes, metabolic stability half-life', 43.7),
  ('C=Cc1cc(O)cc2nc(-c3ccc(O)c(F)c3)oc12', 'human liver microsomes, metabolic stability half-life', 5.84);

input: Please state recorded half-life (tested on human liver microsomes, metabolic stability half-life) of COc1cc(Nc2nc3c(s2)CCCC3c2ccccc2)ccc1-n1cnc(C)c1 (centres undefined)
output: 31

* * *

System: human liver microsomes, metabolic stability half-life
Assay: NCATS Human Liver Microsomal (HLM) Stability Profiling
Conditions: higher = more stable; screened at 1 µM (by protocol)
MEASURED ENDPOINT: half-life (min)
Response body: numeric value in min, unit text excluded.

input: Dear colleague, I am looking for the recorded half-life of the following compound: COc1ccc(C(=O)NC(c2ccccc2Cl)c2cc(Cl)c3cccnc3c2O)cc1 (stereo unspecified)
output: 37.1

input: Dear colleague, I am looking for the recorded half-life of the following compound: CC1=C(C(=O)Nc2cccc(-c3cn[nH]c3)c2)C(c2ccccc2Cl)N=C(Nc2nc3ccccc3o2)N1 (stereo unspecified)
output: 49.1

input: Dear colleague, I am looking for the recorded half-life of the following compound: O=C(O)c1ccccc1NCCc1ccccc1
output: 23.8
